Origin of measurements: the supplement of paper PMC6555819

Tested on: LXRb homodimer (NR concentration 270 nM)
testMethodNotes: PBM binding z-score (relative to random genomic background probes); higher = stronger binding; sequences stand for … in GC…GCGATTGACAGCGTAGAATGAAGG
The entries below are paired with their reported PBM binding z-score.
propertyName: PBM binding z-score

• CATACAGGGTCAGCTAGTCCAGAGTAGGGACGGC = 0.191
• CGTCCAAGGTCAATGCTAGGTCAGTGCAAGCATT = 0.975
• TCTCGGAGGACACGAAAGGTCAGAGCACGACATC = 0.0344
• ACAGACAGGTGAGTGAAGGTAACTAAGCTGGACG = -0.463
• TTACCAAGGTGAAAGGTGGTTGATGCACGCCTTG = -0.366
• AGAACGAGGGCAATGCGTTGATAGCACGGGTGGC = -0.678

* * *

Listing of recorded PBM binding z-score by entry.
Tested on: PPARg homodimer (NR concentration 180 nM)
testMethodNotes: PBM binding z-score (relative to random genomic background probes); higher = stronger binding; sequences stand for … in GC…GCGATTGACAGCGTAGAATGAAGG
propertyName: PBM binding z-score

• GCACGGAGGACAAGGTCAGAGCTTTGTCCGTAGA = 0.85
• ACTTACGGGTCACCGAGGTTATAGCACGCGTATA = 3.07
• TCTAGTTGGTCACAGGTCACACACTCGAAATGCG = 2.52
• TATACAGGGTCAAAGGCCAGGGTACGAATGTCGA = 2.3
• TCTTGTAGATCAATAGAGGTTAAGAACGTGCGCT = 0.496
• TCTAGTTGGCCAAAGGTCACACACTCGAAATGCG = 6.18
• ATCTCTAGGTAACAAGTTCTGTGAAAGAGAGGAC = 0.9

* * *

# PBM binding z-score annotations
System: PXR:RXRa (NR concentration 270 nM, RXRa partner concentration 90 nM)
testMethodNotes: PBM binding z-score (relative to random genomic background probes); higher = stronger binding; sequences stand for … in GC…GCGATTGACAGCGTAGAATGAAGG
propertyName: PBM binding z-score

- CCTACTGGTCCATCAGGTCATTGATATCAACGTT: 1.99
- CGAACTAGGTCAAGGATAGTGAATCTCCGCACGC: 0.863
- AGTCAAAGTTCAGGACGTGGTAACGTAAAGCACG: 2.15
- CCTTACGGGTCAATGTTATAGCACGGGTGGTACG: 2.45
- AGAACGAGGGCAATGAGTTGAAAGCACGGGTGGC: 1.67
- TAGCCTAGGTCATTGGGCGAGTATAGTACGCATC: 1.59
- CCTAGTTGGTCTGGAGGTCACACACCGGATATGA: 4.72

* * *

Entries annotated with measured PBM binding z-score
Tested on: LXRb homodimer (NR concentration 270 nM)
testMethodNotes: PBM binding z-score (relative to random genomic background probes); higher = stronger binding; sequences stand for … in GC…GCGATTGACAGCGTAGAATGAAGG
propertyName: PBM binding z-score

• ACAGACAGGTGATGAAGGTAACTCTGGCTATCAT = -0.538
• AGTCAAAGTTCACTAGGTAGCGTAAGATTCAGCT = 0.743
• AGAATGAGGTTATTAAGATCCGGGAATTGCGGTC = -0.217
• CAAACTTGGTCAAGAGGTCAAAGTCCGCTTCCCG = 1.18
• TATACAGTGTCAAAGGCCAGAGTACGAATGTCGA = 0.893
• ACTTACGGGTCAACGAGGCTATAGCACGCGTATA = 0.747
• CCTATTAGTTGACCATAAGGGTAACCGAAGCTCG = 0.958
• TAGCCTAGGTTAGATCGGGCCAGTATACGCTATA = -0.862
• GGAACGAGGGCAATCGAGTTGATAGCATGGCGAT = -0.883
• CTACCAAGGAGAACAAGGTCGTTGATTACTATTC = 0.011
• TCGAGTAGGTTAGTAGGGGCATTCAGCCAACATA = -0.216
• CTCGAAAGGTCGTGCTCAGGTGAGTAAACCAAAC = 0.181
• AACGAAAGGTCGAGGTGAGTATAGAGAAAGGGAA = 0.0857
• AGAAGGAGGTTACCAAAGATCAGGGAAACGCTTG = 0.368
• TAGCCTAGGTCAGATCGGGCCAGTATGCGCTATA = -0.424
• CAAACTAAGTCAAGAGGTCAAAGTCCGCTTCCCG = 1.95
• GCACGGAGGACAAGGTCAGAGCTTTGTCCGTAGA = -0.916
• TTACCAAGGTGAAAGGGCGTTGATGCACGCCTTG = -0.657
• TAATATAGGTAAAGGTGAAAGTCGAACGATATGA = 0.351
• ATCTCTATGTAAAGTTCAGTGAAAGATCGATAGA = 0.525
• GGAACGAGGGCAAAGTTGATAGCTTCTGTCGACG = -0.484
• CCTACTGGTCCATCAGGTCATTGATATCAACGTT = 0.36
• ATCGAAAGGCCGAGGTGAGTATAGAGAAAGGGAA = -0.455

* * *

Tested on: PXR:RXRa (NR concentration 270 nM, RXRa partner concentration 90 nM)
testMethodNotes: PBM binding z-score (relative to random genomic background probes); higher = stronger binding; sequences stand for … in GC…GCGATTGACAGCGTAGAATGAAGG
Below, each entry is listed with its recorded PBM binding z-score.
propertyName: PBM binding z-score

* CCTACTGGGCCATCAGGTCATTAATATCAACGTT | 1.25
* CATACAGTGTCAGCTAGGCCAGAGTAGGGACGGC | -0.453
* TCAGACAGCTGAAGGTAACTCAGGTACGCAGTCG | 0.139
* CGTCCAAGGTCAATGCTAGGGCAGTGAAAGCATT | 3.68
* CCTACTGGGCCACGAGAGGTCATTGATTCAGTGA | 5.52
* GATACAGGGTCAGCTAGAGGCCAGCGTATGGAAA | 2.97
* CGTCCAAGGTCAGAGGTCAGTGAAGAGATGACGG | 5.72
* CAAACTAGGTCACGAAAGGTCAAAGGCGAATGAC | 7.28
* ACTATTAGTTGAGACGAGGGTAACCGATAGGTTG | 0.245
* CCTACTGGGCCAACGTCATTGATCAGTCAAAGCA | -0.583
* TCTAGTTGGTCAAAGGTCACATACTCGAAATGCG | 5.59
* CAAACTAGGTCACGAAAGGTTAAAGTCGAATGAC | 5.8
* CAAACTAGGTCAAGAGGTCAAAATCCGCTTCCCG | 5.89
* CGTACAAGGTCAATGCTAGGTCAGTGAAAGCATT | 5.07
* CGAACTAGGTCATTGACAGGACAGAGAATAGTAA | 1.5
* ACTAGTTGGTCAGCTGAGGTGACACACAATTCGG | 0.897
* CGTCCAAGGTCAGAGAGGTCAGTGGATGCCGAGT | 6.17
* CCTCGGAGGACAACAGGAGGTCACAGCTGCCAGA | 4.2
* CTACCAAGGTGAACAAAGTCGTTGATTACTATTC | 0.262
* CGTCCAAGGTCATAGGAGCTCAGTGAAGACAGAT | 4.27
* TCATTTAGGTAAACAGGTGAAAGTCCGTAAGTTA | 1.01
* TCGAGTAGGTTACCAATGGGGCATTCAACTTTCT | 0.506
* GCTATTAGTTGAAGGGGCAACCGAATGATTCTCG | -0.209
* GCTGCTAGGTCAACCGATGGTCAGCTAAAGCTCG | 1.43
* GCGACTGGGACATCAGCAGGTTACCATAACTTAA | -0.226
* TAGGCTAGGTCATGGGCCAGTATACCACGCGAAC | 1.42
* CGTTACGGGTCACGAGGTTATAGCACGACGAGCG | 4.65
* GCCTACGGGTCAAAGGTTATAGCATGAATAGAAT | 6.12
* GCTGCTAGGTCAGGTGGGTCAGCTAACGGGTACG | 1.28
* TAGCCTAGGTCATTCAGGGGCCAGTAAAGAAAGC | 2.39
* TCTTGTAGATCGAGCAGGTTAAGAAAGCCTGAGT | 0.342
* CCGACTGGGGCATAAGGTTTCCATAAGCCAGCCC | -0.536
* ACTAGCAGGCTAAGTTTGGGTCACTCAAACAAAG | 0.49
* CTCGAAAGGTCGTGCTCAGGCGAGTATACCAAAC | 2.68
* AGTTAAAGTTCACTAGGTAACGTAAGATTCAGCT | 3.54
* CAAACTAGGTCAAGCGGTCAAAGTCCGCTTCCCG | 2.21
* ATCTCTAGGTAAAGTTCAGTGAGAGATCGATAGA | 1.77
* CCGACTGGGGCATGGTTACCATAACGCACAGCCA | -0.696
* ACAGACAGGTGAGTGAAGATAACTCAGCTGGACG | -0.523
* GGTACAGGGTCAGCTAGAGGCCAGAGTATGGAAA | 3.37
* TTACCATGGTGAAGGTCGTTGATCCCTCTGTAGA | 1.1
* TATGCTAGGTCAACGATGGTCAGCTAATCTGCTA | 1.77
* GCTGCTAGGTGAGGTTGGTCAGCTAACGGGTACG | -0.499
* TCTAGTTGGTCACAGAGGTCACACACGACGGGTA | 5.58
* GATACAGGGTCAAGGACAGAGTACGCGTATTGAT | 3.92
* CAGCCTAGGTCACGGCCAGTATAGGAGGAACGTT | 2.34
* TCTTGTAGACCAAAGGTTAAGAAAGCCGAAGCCT | 1.58
* CCAGACAGGTGAGAAGGTAACTTAGCCTCGATTA | -0.169
